Reference for the values: the supplement of paper PMC12494721

We begin with a simple list: items and their reported growth.
- System: Clostridium sporogenes DSM 1664
- ASSAY EXPLANATION: growth (OD595) fold change vs plate DMSO controls (fold change (ratio)); higher = more growth
- RUN CONDITIONS: incubation time: 27 h, anaerobic, 37 °C
Counter-ions that a name gives are not always drawn.

{"COMPOUND": "C[C@]12C=CC(=O)C=C1CC[C@H]1[C@@H]3C[C@@H](O)[C@](O)(C(=O)CO)[C@@]3(C)C[C@H](O)[C@@]12F [Triamcinolone] (20 µM)", "growth": 1.01}
{"COMPOUND": "O=C1CCc2cc(OCCCCc3nnnn3C3CCCCC3)ccc2N1 [Cilostazol] (20 µM)", "growth": 1.06}
{"COMPOUND": "OC[C@H]1O[C@H](O[C@H]2O[C@H](CO)[C@@H](O)[C@H](O)[C@H]2O)[C@H](O)[C@@H](O)[C@@H]1O [Trehalose dihydrate] (20 µM)", "growth": 1}
{"COMPOUND": "CN1C(=O)CC(c2ccccc2)C1=O (stereo unspecified) [Phensuximide] (20 µM)", "growth": 0.976}
{"COMPOUND": "COc1ccc2cc([C@@H](C)C(=O)O)ccc2c1 [(R) Naproxen sodium salt] (20 µM)", "growth": 0.979}
{"COMPOUND": "CCN[C@@H]1C[C@H](N)[C@@H](O[C@H]2OC(CN)=CC[C@H]2N)[C@H](O)[C@H]1O[C@H]1OC[C@](C)(O)[C@H](NC)[C@H]1O [Netilmicin sulfate] (20 µM)", "growth": 0.949}
{"COMPOUND": "Nc1cc(C(Cl)=C(Cl)Cl)c(S(N)(=O)=O)cc1S(N)(=O)=O [Clorsulon] (20 µM)", "growth": 1.04}
{"COMPOUND": "O=C1NS(=O)(=O)c2ccccc21 [Saccharin] (50 µM)", "growth": 0.975}
{"COMPOUND": "NC(CO)C(=O)NNCc1ccc(O)c(O)c1O (stereo unspecified) [Benserazide hydrochloride] (20 µM)", "growth": 0.879}
{"COMPOUND": "COc1nc(C)nc(Cl)c1NC1=NCCN1 [Moxonidine] (20 µM)", "growth": 1.05}
{"COMPOUND": "CC(=O)OCC(=O)[C@@]1(O)CC[C@H]2[C@@H]3CCC4=CC(=O)C=C[C@]4(C)[C@@]3(Cl)[C@@H](Cl)C[C@@]21C [Dichlorisone acetate] (20 µM)", "growth": 1.03}
{"COMPOUND": "C[N+]1(C)CCC(=C(c2ccccc2)c2ccccc2)CC1 [Diphemanil methylsulfate] (20 µM)", "growth": 1.04}
{"COMPOUND": "CC(C)C[C@H](NC(=O)[C@@H](O)[C@H](N)Cc1ccccc1)C(=O)O [Ubenimex] (20 µM)", "growth": 1.02}
{"COMPOUND": "N=c1nc(N2CCCCC2)cc(N)n1O [Minoxidil] (20 µM)", "growth": 0.888}
{"COMPOUND": "CNCCCC12CCC(c3ccccc31)c1ccccc12 [Maprotiline hydrochloride] (20 µM)", "growth": 1.03}
{"COMPOUND": "Nc1nc2[nH]cc(CCc3ccc(C(=O)N[C@@H](CCC(=O)O)C(=O)O)cc3)c2c(=O)[nH]1 [Pemetrexed disodium] (20 µM)", "growth": 1.11}
{"COMPOUND": "CC(c1cc2ccccc2s1)N(O)C(N)=O (stereo unspecified) [Zileuton] (20 µM)", "growth": 1.11}
{"COMPOUND": "Cn1nnnc1SCC1=C(C(=O)O)N2C(=O)[C@@H](NC(=O)[C@H](O)c3ccccc3)[C@H]2SC1 [Cefamandole sodium salt] (20 µM)", "growth": 0}
{"COMPOUND": "CN(C(=O)C(Cl)Cl)c1ccc(OC(=O)c2ccco2)cc1 [Diloxanide furoate] (20 µM)", "growth": 1.1}
{"COMPOUND": "C=C(C)[C@@H]1CC=C(/C=N/O)CC1 [Perillartine] (50 µM)", "growth": 1.04}
{"COMPOUND": "CCCCC1=NC2(CCCC2)C(=O)N1Cc1ccc(-c2ccccc2-c2nnn[nH]2)cc1 [Irbesartan] (20 µM)", "growth": 1.11}
{"COMPOUND": "Cc1c(Cl)cccc1Nc1ncccc1C(=O)O [Clonixin lysinate] (20 µM)", "growth": 1.13}
{"COMPOUND": "CCCCC(CC)CNC(=N)NC(=N)NCCCCCCNC(=N)NC(=N)NCC(CC)CCCC (stereo unspecified) [Alexidine dihydrochloride] (20 µM)", "growth": 0.294}
{"COMPOUND": "COC(=O)Nc1nc2cc(C(=O)c3cccs3)ccc2[nH]1 [Nocodazole] (20 µM)", "growth": 0.969}
{"COMPOUND": "CN(C)CCC=C1c2ccccc2C=Cc2ccccc21 [Cyclobenzaprine hydrochloride] (20 µM)", "growth": 0.862}
{"COMPOUND": "CCN(CC)CCOCCOC(=O)C(CC)(CC)c1ccccc1 [Oxeladin citrate] (20 µM)", "growth": 1.05}
{"COMPOUND": "CCCCS(=O)(=O)N[C@@H](Cc1ccc(OCCCCC2CCNCC2)cc1)C(=O)O [Tirofiban hydrochloride] (20 µM)", "growth": 0.927}
{"COMPOUND": "Cc1cc(-c2ccccc2)nnc1NCCN1CCOCC1 [Minaprine dihydrochloride] (20 µM)", "growth": 1.21}
{"COMPOUND": "N#Cc1ccc(C(c2ccc(C#N)cc2)n2cncn2)cc1 [Letrozole] (20 µM)", "growth": 1.05}
{"COMPOUND": "C[C@]12C=CC(=O)C=C1CC[C@@H]1[C@@H]2[C@@H](O)C[C@@]2(C)[C@H]1CC[C@]2(O)C(=O)CO [Prednisolone] (20 µM)", "growth": 0.973}
{"COMPOUND": "Cc1onc(-c2ccccc2Cl)c1C(=O)N[C@@H]1C(=O)N2[C@@H]1SC(C)(C)[C@@H]2C(=O)O [Cloxacillin sodium salt] (20 µM)", "growth": 0}
